As shown below, each of these molecules has a reported viability at 28.5 h, 10 µM value.
Assay: in vitro
Conditions: human, hela cells, % viability
Provide only the numeric value, understood in %.

- Molecule: "CCOC(=O)N1CCC(n2c(=O)[nH]c3ccccc32)CC1"
  Unit text: "%"
  Test result: 79.6
- Molecule: "Oc1nc2cccnc2cc1-c1ccc2c(c1)OCCCO2"
  Unit text: "%"
  Test result: 96

Data request: # get_value(readout='viability at 28.5 h, 10 µM', item= O=C1NCCN(C(=O)COc2ccc(F)cc2F)C1Cc1ccccc1-c1cccnc1 (stereo not drawn) )
Data returned: 95.6

Data request: # get_value(readout='viability at 28.5 h, 10 µM', item= O[C@H]1CN[C@H](c2nc(-c3ccc(OC(F)(F)F)cc3)no2)C1 )
Data returned: 112

Data request: # get_value(readout='viability at 28.5 h, 10 µM', item= Cc1cc(C(F)(F)F)nc(SCC(=O)N2c3ccccc3Sc3ccccc32)n1 )
Data returned: 90.8

Data request: # get_value(readout='viability at 28.5 h, 10 µM', item= O=S(=O)(c1cccs1)n1ccc2c(CN3CCCC3)cccc21 [CBK116195T] )
Data returned: 89.3

Data request: # get_value(readout='viability at 28.5 h, 10 µM', item= O=C1NCC2(CCCN(C(=O)c3cccs3)C2)Oc2ccccc21 (stereo not drawn) )
Data returned: 102

Data request: # get_value(readout='viability at 28.5 h, 10 µM', item= CNC(=O)C1(Cc2ccccc2-c2ccccc2)CCN(C(=O)CCC2CCCC2)CC1 )
Data returned: 89.4

Data request: # get_value(readout='viability at 28.5 h, 10 µM', item= CCOc1ccc2c(c1)cc(C(=O)NCc1cc(CC)no1)n2C )
Data returned: 95.5

Data request: # get_value(readout='viability at 28.5 h, 10 µM', item= O=C(CN1C(=O)[C@@H]2CCCN2c2ncccc21)NC1CCCCC1 )
Data returned: 116

Data request: # get_value(readout='viability at 28.5 h, 10 µM', item= COc1cccc(NC(=O)CCN2CCN(CCO)CC2)c1 [CBK264207C] )
Data returned: 88.3

Data request: # get_value(readout='viability at 28.5 h, 10 µM', item= O=C(Nc1nc2c(s1)CCCCC2)C1CN(S(=O)(=O)c2ccc(F)cc2)C1 )
Data returned: 95

Data request: # get_value(readout='viability at 28.5 h, 10 µM', item= Nc1nc(CSCCO)nc(Nc2ccc(F)cc2)n1 )
Data returned: 98.3

Data request: # get_value(readout='viability at 28.5 h, 10 µM', item= CC(C)[C@H](Cn1nc(C2CC2)ccc1=O)NC(=O)C1CCC1 )
Data returned: 85.1

----------
Assay: in vitro
Details: human, hela cells, % viability
Quantity name: viability at 28.5 h, 10 µM (%)
Provide only the numeric value, understood in %.

Here are 6 compounds together with their reported answers.
- Compound: "COc1ccc(C(=O)N2CCCN(Cc3ccc(C#N)cc3)CC2)cc1"
  Quantity name: "viability at 28.5 h, 10 µM"
  Test result: 94.7
- Compound: "CCc1cc(OCCCSc2nc(C)cc(O)n2)ccc1Cl"
  Quantity name: "viability at 28.5 h, 10 µM"
  Test result: 106
- Compound: "CC(C)C(=O)N1CCCC(n2nc(-c3cccs3)ccc2=O)C1 (centres unmarked)"
  Quantity name: "viability at 28.5 h, 10 µM"
  Test result: 92.3
- Compound: "OC(COc1ccccc1)Cn1ncnn1 (centres unmarked)"
  Quantity name: "viability at 28.5 h, 10 µM"
  Test result: 89.6
- Compound: "COc1ccccc1CN(Cc1cccnc1)C(=O)c1cnc(C)cn1"
  Quantity name: "viability at 28.5 h, 10 µM"
  Test result: 95.1
- Compound: "C#CCNC(=O)[C@H]1O[C@H](CCN(C)CC#C)CC[C@@H]1O"
  Quantity name: "viability at 28.5 h, 10 µM"
  Test result: 89.6

Data request: # get_value(readout='viability at 28.5 h, 10 µM', item= CCNC(=O)N1CC2(CCN(Cc3cc(OC)c(OC)c(OC)c3)CC2)c2ccccc21 )
Data returned: 96.5

----------
Experiment: in vitro
Settings: human, hela cells, % viability
As shown below, each of these compounds has a reported viability at 28.5 h, 10 µM value.
Provide only the numeric value, understood in %.

Here are 8 compounds together with their reported answers.
- Compound: "COc1ccccc1N1C(=O)CC(=O)N=C1S"
  Unit text: "%"
  viability at 28.5 h, 10 µM: 89.5
- Compound: "COc1ccccc1CCCNC(=O)c1ccc(=O)n(C)c1"
  Unit text: "%"
  viability at 28.5 h, 10 µM: 82.7
- Compound: "CN1C(=O)CC2(C1=O)C(=O)N(CC(=O)c1ccccc1)c1ccc(F)cc12 (centres unmarked)"
  Unit text: "%"
  viability at 28.5 h, 10 µM: 95.4
- Compound: "O=C(Nc1cccnc1)c1ccc(NC(=O)C2OCCc3ccccc32)cc1 (centres unmarked)"
  Unit text: "%"
  viability at 28.5 h, 10 µM: 86.6
- Compound: "CCOC(=O)c1c(NC(=O)CSc2nnc3ccccn23)sc2c1CCCCC2"
  Unit text: "%"
  viability at 28.5 h, 10 µM: 101
- Compound: "Cc1[nH]c(C(=O)NCCc2ccco2)c(C)c1C(=O)OC(C)C"
  Unit text: "%"
  viability at 28.5 h, 10 µM: 84.1
- Compound: "O=C(Nc1cccc(-c2nnn[nH]2)c1)c1ccc(C2CCCCC2)cc1"
  Unit text: "%"
  viability at 28.5 h, 10 µM: 114
- Compound: "CC(C)c1ccc(-c2csc(Nc3cccc(C(=O)O)c3)n2)cc1"
  Unit text: "%"
  viability at 28.5 h, 10 µM: 104

Data request: # get_value(readout='viability at 28.5 h, 10 µM', item= O=C(OCc1ccc(S(=O)(=O)c2ccccc2)cc1)c1cc(O)nc2ccccc12 )
Data returned: 93.1

Data request: # get_value(readout='viability at 28.5 h, 10 µM', item= O=c1[nH]n(-c2ccccc2)c(=O)n1Cc1ccccc1F )
Data returned: 95

Data request: # get_value(readout='viability at 28.5 h, 10 µM', item= O=c1[nH]c2ncc(-c3ccncc3)nc2n1C1CCCC1 )
Data returned: 116

Data request: # get_value(readout='viability at 28.5 h, 10 µM', item= COCC1CN(C(=O)Nc2ncc(Cc3ccc(C)c(Cl)c3)s2)CCO1 (centres unmarked) )
Data returned: 84

Data request: # get_value(readout='viability at 28.5 h, 10 µM', item= Cc1ccccc1C(=O)NCC(=O)Nc1ccc(Br)c2ccccc12 )
Data returned: 98

Data request: # get_value(readout='viability at 28.5 h, 10 µM', item= C=Cn1ncc(CN2CCC(O)(c3ccccc3C)CC2)c1C )
Data returned: 88.6

Data request: # get_value(readout='viability at 28.5 h, 10 µM', item= CN1C(=O)c2ccccc2OCCCCC[C@H]2[C@@H]1CCCN2C(=O)CN1CCN(CCO)CC1 )
Data returned: 99

Data request: # get_value(readout='viability at 28.5 h, 10 µM', item= O=C(Nc1cccc(N2CCNCC2)c1)c1cccnc1 [CBK029414T] )
Data returned: 94.6

Data request: # get_value(readout='viability at 28.5 h, 10 µM', item= CSc1nccc(N2CCC(NCCCn3ccnn3)CC2)n1 )
Data returned: 92.7

----------
As shown below, each of these compounds has a reported viability at 28.5 h, 10 µM value.
Assay: in vitro
Details: human, hela cells, % viability
Provide only the numeric value, understood in %.

Here are 3 compounds together with their reported answers.
- Compound: "COc1ccc(C2C=C(c3ccc(OC)c(OC)c3)Nc3ncnn32)c(OC)c1 (centres unmarked) [CBK293934]"
  Quantity name: "viability at 28.5 h, 10 µM"
  Test result: 93.3
- Compound: "Cc1cc(=O)n(C)c(=O)n1CCCCCN1CCCC1 [CBK027386]"
  Quantity name: "viability at 28.5 h, 10 µM"
  Test result: 99.9
- Compound: "CN1CCC(N(C)C(=O)NCc2ccc(Cl)c(Cl)c2)C1 (centres unmarked) [CBK155996]"
  Quantity name: "viability at 28.5 h, 10 µM"
  Test result: 92.4

Data request: # get_value(readout='viability at 28.5 h, 10 µM', item= Cc1cc(NC(=O)c2cc(Cl)sc2Cl)no1 [CBK010872] )
Data returned: 84.4

Data request: # get_value(readout='viability at 28.5 h, 10 µM', item= O=C(c1cccs1)N1CCN(Cc2cc(=O)n3ccsc3n2)CC1 [CBK305872] )
Data returned: 119

----------
As shown below, each of these compounds has a reported viability at 28.5 h, 10 µM value.
Test: in vitro
Details: human, hela cells, % viability
Provide only the numeric value, understood in %.

- Compound: "O=C(CSc1ncnc2[nH]ncc12)c1ccc(-c2ccccc2)cc1"
  viability at 28.5 h, 10 µM / %: 88.4
- Compound: "CC(C)C(=O)N1C[C@@H](N(C)C)[C@H](c2cn(C)c3ccccc23)C1"
  viability at 28.5 h, 10 µM / %: 91.2
- Compound: "COc1ccc(-c2cnc(NCC3CC3)c(C(=O)NCCc3c[nH]c4ccccc34)c2)cc1"
  viability at 28.5 h, 10 µM / %: 96.4

Data request: # get_value(readout='viability at 28.5 h, 10 µM', item= CCCSc1nnc(-c2ccccc2NC(=O)CC)c(O)n1 )
Data returned: 92.8

Data request: # get_value(readout='viability at 28.5 h, 10 µM', item= O=C1NCC2(CCCN(Cc3ccc(F)cc3)C2)Oc2ccccc21 (stereo not drawn) )
Data returned: 92.7

Data request: # get_value(readout='viability at 28.5 h, 10 µM', item= Nc1ccc(C(=O)Nc2ccc(Nc3cc(-c4cccnc4)ncn3)cc2)cc1 )
Data returned: 94.6
